System Name: T1, human PD-L1 (human, UniProt Q9NZQ7 19-290)
T1 construct: whole, on cells; also called hPD-L1; PD-L1 antigen on MDA-MB-231 cells
T1 sequence (Q9NZQ7 19-290): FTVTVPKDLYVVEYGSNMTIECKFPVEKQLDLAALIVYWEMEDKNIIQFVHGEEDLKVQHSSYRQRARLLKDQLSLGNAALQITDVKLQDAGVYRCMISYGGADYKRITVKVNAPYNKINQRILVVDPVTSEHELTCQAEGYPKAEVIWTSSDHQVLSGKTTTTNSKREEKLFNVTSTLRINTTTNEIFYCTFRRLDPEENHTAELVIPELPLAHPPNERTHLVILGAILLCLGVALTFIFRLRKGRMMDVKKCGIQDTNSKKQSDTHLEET
Test Details: competitive FACS: blocks human-CD80-mFc binding to 293T-PD-L1 cells
Experimental Readout: IC50

Determine its reported IC50: antibody D1hu (VHH, Humanized anti-PD-L1 nanobody) VHH: EVQLVESGGGLVQPGGSLRLSCTASGRDFLTYGMGWFRQAPGKELEFVASINWSGSMTYYADSVKGRFTISRDNAKNTVYLQMNSLRAEDTAVYICAARRGAVTYASSNEYEHWGQGTQVTVSS
~1.5 nM

Determine its reported IC50: antibody Bhu (VHH, Humanized anti-PD-L1 nanobody) VHH: QVQLVESGGGVVQPGGSLRLSCAASGFTFSSYAMRWVRQAPGKGLEWVAGINTGSEIVVYANSVRGRFTISRDNSRDTLYLQMNSLRAEDTAVYYCATGLVSAEHDGIWGQGTQVTVSS
~1.7 nM

Determine its reported IC50: antibody Chu (VHH, Humanized anti-PD-L1 nanobody) VHH: EVQLVESGGGLVQPGGSLRLSCAASGRDFLTYGMGWFRQAPGKGREFVASINWSGSMTYYADSVKGRFTISRDNAKNTVYLQMNSLKAEDTAVYICAARRGAVTYASSNEYEHWGQGTLVTVSS
~3.2 nM

Provenance of the data: patent US20240383974A1
